experimental.target: α3β4α5 nAChRs (Homo sapiens, UniProt P30926+P32297)
Sequence (P32297 32-505): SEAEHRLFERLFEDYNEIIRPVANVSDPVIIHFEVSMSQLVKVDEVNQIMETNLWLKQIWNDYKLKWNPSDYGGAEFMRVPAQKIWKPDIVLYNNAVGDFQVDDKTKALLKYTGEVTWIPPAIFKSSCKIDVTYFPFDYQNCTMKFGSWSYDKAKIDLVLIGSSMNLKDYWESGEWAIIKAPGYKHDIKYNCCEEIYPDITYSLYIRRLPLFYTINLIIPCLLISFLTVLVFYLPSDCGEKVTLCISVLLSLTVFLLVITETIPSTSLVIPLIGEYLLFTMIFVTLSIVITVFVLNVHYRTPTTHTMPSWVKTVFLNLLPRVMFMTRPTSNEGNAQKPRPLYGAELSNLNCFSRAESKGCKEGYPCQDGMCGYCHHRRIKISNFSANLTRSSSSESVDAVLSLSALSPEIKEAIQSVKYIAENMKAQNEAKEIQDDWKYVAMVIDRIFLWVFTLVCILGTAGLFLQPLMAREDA
Sequence (P30926 22-498): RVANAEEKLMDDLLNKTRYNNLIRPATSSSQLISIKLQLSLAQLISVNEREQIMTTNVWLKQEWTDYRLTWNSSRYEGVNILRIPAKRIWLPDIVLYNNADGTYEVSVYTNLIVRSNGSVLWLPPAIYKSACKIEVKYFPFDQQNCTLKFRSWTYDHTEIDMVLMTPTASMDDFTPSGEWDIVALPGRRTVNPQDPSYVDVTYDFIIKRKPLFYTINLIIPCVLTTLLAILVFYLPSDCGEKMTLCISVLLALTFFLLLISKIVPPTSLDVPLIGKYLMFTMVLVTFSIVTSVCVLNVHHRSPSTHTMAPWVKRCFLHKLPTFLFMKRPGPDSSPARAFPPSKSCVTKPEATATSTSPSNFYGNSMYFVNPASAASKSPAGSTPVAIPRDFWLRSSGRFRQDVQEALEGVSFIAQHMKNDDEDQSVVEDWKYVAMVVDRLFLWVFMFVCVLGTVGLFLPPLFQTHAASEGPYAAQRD
Sequence (P30532 23-468 partner): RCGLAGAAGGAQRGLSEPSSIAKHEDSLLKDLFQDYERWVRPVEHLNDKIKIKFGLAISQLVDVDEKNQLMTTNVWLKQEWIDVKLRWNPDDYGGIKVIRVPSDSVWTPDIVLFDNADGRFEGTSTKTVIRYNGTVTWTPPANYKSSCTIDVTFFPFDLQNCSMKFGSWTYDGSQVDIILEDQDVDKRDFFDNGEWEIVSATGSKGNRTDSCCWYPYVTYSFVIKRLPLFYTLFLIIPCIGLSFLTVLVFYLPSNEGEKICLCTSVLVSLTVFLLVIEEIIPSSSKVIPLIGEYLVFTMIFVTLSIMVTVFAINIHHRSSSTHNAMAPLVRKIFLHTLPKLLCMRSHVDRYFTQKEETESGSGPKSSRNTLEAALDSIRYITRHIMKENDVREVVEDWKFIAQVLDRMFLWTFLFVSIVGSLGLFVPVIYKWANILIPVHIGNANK
protocol.notes: cell-based
condition.parameters: read-out: Agonist Effect Emax

molecule	Emax
CN1CCCC1c1cccnc1 (racemic) [Synthetic RS racemic nicotine, RS-Nicotine]	65%
CN1CCC[C@@H]1c1cccnc1 [Synthetic R nicotine, R nicotine]	21%
CN1CCC[C@H]1c1cccnc1 [Synthetic S nicotine, S nicotine]	96%
CN1CCCC1c1cccnc1 (stereo not shown) [Ref. nicotine (Sigma-Aldrich), nicotine]	100%

* * *

experimental.target: α4β2 nAChRs (Homo sapiens, UniProt P17787+P43681)
Sequence (P43681 29-627 limits assumed): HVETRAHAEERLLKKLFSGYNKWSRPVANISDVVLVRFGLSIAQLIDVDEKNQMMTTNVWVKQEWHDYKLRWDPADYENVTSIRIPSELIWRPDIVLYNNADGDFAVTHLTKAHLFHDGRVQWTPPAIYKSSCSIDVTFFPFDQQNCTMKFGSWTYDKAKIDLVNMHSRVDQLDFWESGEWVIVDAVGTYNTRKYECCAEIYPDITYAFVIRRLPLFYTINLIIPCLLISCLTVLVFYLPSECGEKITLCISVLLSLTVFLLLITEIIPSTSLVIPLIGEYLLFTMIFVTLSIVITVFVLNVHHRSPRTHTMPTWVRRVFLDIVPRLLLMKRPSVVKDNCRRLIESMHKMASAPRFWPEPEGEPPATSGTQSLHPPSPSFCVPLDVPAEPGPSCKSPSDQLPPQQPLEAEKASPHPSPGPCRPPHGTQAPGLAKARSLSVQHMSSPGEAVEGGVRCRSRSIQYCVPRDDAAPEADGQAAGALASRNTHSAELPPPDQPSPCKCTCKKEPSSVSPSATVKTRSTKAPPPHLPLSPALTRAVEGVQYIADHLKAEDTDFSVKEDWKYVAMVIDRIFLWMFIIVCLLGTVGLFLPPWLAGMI
Sequence (P17787 26-502): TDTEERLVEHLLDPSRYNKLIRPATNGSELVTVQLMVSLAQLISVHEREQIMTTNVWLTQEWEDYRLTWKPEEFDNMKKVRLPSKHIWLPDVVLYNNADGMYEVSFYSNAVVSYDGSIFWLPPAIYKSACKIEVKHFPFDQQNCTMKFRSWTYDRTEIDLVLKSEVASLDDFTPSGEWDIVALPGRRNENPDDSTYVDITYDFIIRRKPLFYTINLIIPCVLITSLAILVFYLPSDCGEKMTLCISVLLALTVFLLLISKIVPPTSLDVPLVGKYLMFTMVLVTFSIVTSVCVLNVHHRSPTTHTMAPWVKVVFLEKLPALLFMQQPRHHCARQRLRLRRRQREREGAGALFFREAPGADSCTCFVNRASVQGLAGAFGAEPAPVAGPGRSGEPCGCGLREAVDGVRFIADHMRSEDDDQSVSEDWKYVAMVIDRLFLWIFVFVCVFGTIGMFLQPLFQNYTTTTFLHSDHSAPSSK
protocol.notes: cell-based
Format: cell-based
Reported Antagonist Effect Hillslope by item:

compound	Antagonist Effect Hillslope
CN1CCC[C@H]1c1cccnc1 [Alchem S nicotine, S nicotine]	1.01
CN1CCC[C@H]1c1cccnc1 [Sigma-Aldrich S nicotine, S nicotine]	0.94
CN1CCCC1c1cccnc1 (stereo not shown) [Ref. nicotine (Sigma-Aldrich), nicotine]	0.85
CN1CCC[C@@H]1c1cccnc1 [Synthetic R nicotine, R nicotine]	0.67

* * *

experimental.target: α3β4α5 nAChRs (Homo sapiens, UniProt P30926+P32297)

compound	Agonist Effect Hillslope
CN1CCC[C@H]1c1cccnc1 [Sigma-Aldrich S nicotine, S nicotine]	−1.91
CN1CCC[C@H]1c1cccnc1 [Synthetic S nicotine, S nicotine]	−1.48
CN1CCCC1c1cccnc1 (stereo not drawn) [Ref. nicotine (Sigma-Aldrich), nicotine]	−1.48
CN1CCC[C@@H]1c1cccnc1 [Synthetic R nicotine, R nicotine]	−2.37
CN1CCC[C@H]1c1cccnc1 [Alchem S nicotine, S nicotine]	−1.46
CN1CCCC1c1cccnc1 (racemic) [Synthetic RS racemic nicotine, RS-Nicotine]	−2.13
